Test system: Nucleic Acid
test_summary: Binding affinity to calf thymus DNA assessed as melting temperature at 5 x 10^-6 M by thermal denaturation assay (reference value: 68.4 degC)
Format: nucleic-acid assay
experimental_context: Bos taurus
measured_attribute: Tm (°C)
Please give a number only; it is taken to be in °C.

Answered cases to consult:
INSERT INTO assay_data (molecule, measured_attribute, value) VALUES
  ('CN(C)CCN1C(=O)c2cccc3c(NCCCCCO)ccc(c23)C1=O', 'Tm', 72.2),
  ('CN(C)CCN1C(=O)c2cccc3c(NCCCO)ccc(c23)C1=O', 'Tm', 71.9),
  ('CN(C)CCN1C(=O)c2cccc3c(NCCCCO)ccc(c23)C1=O', 'Tm', 71.2),
  ('CN(C)CCN1C(=O)c2cccc3c(NCCO)ccc(c23)C1=O', 'Tm', 71);

Attention now shifts to the item below.
Please fill in: Tm reported for CN(C)CCN1C(=O)c2cccc3c(NCCCCCCO)ccc(c23)C1=O = 71.8

----------
System: Nucleic Acid
test_summary: Binding affinity to calf thymus DNA assessed as change in melting temperature at 5 x 10^-6 M by thermal denaturation assay
Format: nucleic-acid assay
experimental_context: Bos taurus
measured_attribute: ΔTm (°C)
Please give a number only; it is taken to be in °C.

INSERT INTO results (molecule, target_or_system, value) VALUES
  ('CN(C)CCN1C(=O)c2cccc3c(NCCCCCO)ccc(c23)C1=O', 'Nucleic Acid', 3.8),
  ('CN(C)CCN1C(=O)c2cccc3c(NCCCCCCO)ccc(c23)C1=O', 'Nucleic Acid', 3.4),
  ('CN(C)CCN1C(=O)c2cccc3c(NCCO)ccc(c23)C1=O', 'Nucleic Acid', 2.6),
  ('CN(C)CCN1C(=O)c2cccc3c(NCCCO)ccc(c23)C1=O', 'Nucleic Acid', 3.5);

Attention now shifts to the item below.
Please fill in: ΔTm reported for CN(C)CCN1C(=O)c2cccc3c(NCCCCO)ccc(c23)C1=O = 2.8

----------
Test system: Nucleic Acid
test_summary: Binding affinity to calf thymus DNA by UV-Vis spectroscopy
Type: nucleic-acid assay
experimental_context: Bos taurus
K for assorted compounds
Give the value; after it, write the unit.

INSERT INTO assay_data (molecule, value) VALUES
  ('CN(C)CCN1C(=O)c2cccc3c(NCCCCO)ccc(c23)C1=O', '0.74 ×10⁴ /M'),
  ('CN(C)CCN1C(=O)c2cccc3c(NCCCCCO)ccc(c23)C1=O', '1.2 ×10⁴ /M');

Bench note, Nucleic Acid: entry CN(C)CCN1C(=O)c2cccc3c(NCCO)ccc(c23)C1=O , its K = 1.44 ×10⁴ /M

Bench note, Nucleic Acid: entry CN(C)CCN1C(=O)c2cccc3c(NCCCCCCO)ccc(c23)C1=O , its K = 1.1 ×10⁴ /M

Bench note, Nucleic Acid: entry CN(C)CCN1C(=O)c2cccc3c(NCCCO)ccc(c23)C1=O , its K = 1.03 ×10⁴ /M

----------
Test system: Nucleic Acid
test_summary: Binding affinity to calf thymus DNA assessed as hypochromicity at 1 x 10^-5 M by UV-Vis spectroscopy
Format: nucleic-acid assay
experimental_context: Bos taurus
measured_attribute: Activity (%)
Please give a number only; it is taken to be in %.

INSERT INTO results (molecule, unit_tag, value) VALUES
  ('CN(C)CCN1C(=O)c2cccc3c(NCCCCO)ccc(c23)C1=O', '%', 30);

Please fill in: Activity reported for CN(C)CCN1C(=O)c2cccc3c(NCCCCCO)ccc(c23)C1=O = 31

Please fill in: Activity reported for CN(C)CCN1C(=O)c2cccc3c(NCCO)ccc(c23)C1=O = 31

Please fill in: Activity reported for CN(C)CCN1C(=O)c2cccc3c(NCCCO)ccc(c23)C1=O = 31

Please fill in: Activity reported for CN(C)CCN1C(=O)c2cccc3c(NCCCCCCO)ccc(c23)C1=O = 31

----------
Tested on: Nucleic Acid
test_summary: Binding affinity to calf thymus DNA assessed as bathochromic shift at 1 x 10^-5 M by UV-Vis spectroscopy
Assay type: nucleic-acid assay
experimental_context: Bos taurus
Activity for assorted compounds
Please give a number only; it is taken to be in nm.

Answered cases to consult:
INSERT INTO assay_data (molecule, value) VALUES
  ('CN(C)CCN1C(=O)c2cccc3c(NCCCCO)ccc(c23)C1=O', 452),
  ('CN(C)CCN1C(=O)c2cccc3c(NCCCCCO)ccc(c23)C1=O', 453),
  ('CN(C)CCN1C(=O)c2cccc3c(NCCO)ccc(c23)C1=O', 447);

Please fill in: Activity reported for CN(C)CCN1C(=O)c2cccc3c(NCCCO)ccc(c23)C1=O = 453

Please fill in: Activity reported for CN(C)CCN1C(=O)c2cccc3c(NCCCCCCO)ccc(c23)C1=O = 453

----------
System: Nucleic Acid
test_summary: Binding affinity to calf thymus DNA assessed as efficiency of fluorescence enhancement at 1 x 10^-5 M by fluorescence spectroscopy
Assay type: nucleic-acid assay
experimental_context: Bos taurus
measured_attribute: KSV (×10³ /M)
Please give a number only; it is taken to be in ×10³ /M.

Answered cases to consult:
INSERT INTO results (molecule, unit_tag, value) VALUES
  ('CN(C)CCN1C(=O)c2cccc3c(NCCCO)ccc(c23)C1=O', '×10³ /M', 4.03),
  ('CN(C)CCN1C(=O)c2cccc3c(NCCCCO)ccc(c23)C1=O', '×10³ /M', 1.15),
  ('CN(C)CCN1C(=O)c2cccc3c(NCCCCCCO)ccc(c23)C1=O', '×10³ /M', 7.12),
  ('CN(C)CCN1C(=O)c2cccc3c(NCCO)ccc(c23)C1=O', '×10³ /M', 3.12);

Attention now shifts to the item below.
Please fill in: KSV reported for CN(C)CCN1C(=O)c2cccc3c(NCCCCCO)ccc(c23)C1=O = 4.36
